Data credit: patent US9464058B2

molecular target: human CYP11B2 (Homo sapiens, UniProt P19099); assay: G-402 cellular enzyme assay, human CYP11B2 (aldosterone release, HTRF); details: G-402 cells expressing human CYP11B2; 1 μM Deoxycorticosterone; 16 h
Sequence (P19099 25-503): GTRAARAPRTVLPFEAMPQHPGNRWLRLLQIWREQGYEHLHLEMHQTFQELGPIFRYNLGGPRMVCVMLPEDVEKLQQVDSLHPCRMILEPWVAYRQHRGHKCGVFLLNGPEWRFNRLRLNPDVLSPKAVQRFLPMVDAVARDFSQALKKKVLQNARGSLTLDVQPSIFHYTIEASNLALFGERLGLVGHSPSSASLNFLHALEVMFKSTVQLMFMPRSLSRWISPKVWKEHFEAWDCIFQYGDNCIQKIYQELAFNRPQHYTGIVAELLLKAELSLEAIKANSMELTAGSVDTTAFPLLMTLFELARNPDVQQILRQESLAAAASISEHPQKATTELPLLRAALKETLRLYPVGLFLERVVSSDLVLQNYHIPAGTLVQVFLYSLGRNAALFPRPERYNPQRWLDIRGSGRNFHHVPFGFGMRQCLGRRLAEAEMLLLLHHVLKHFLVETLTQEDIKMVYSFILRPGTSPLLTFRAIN
ATTRIBUTE MEASURED: EC50 (nM)
Write the answer as a number in nM, unit excluded.

COMPOUND	MEASUREMENT UNIT	EC50
CC(C)n1cncc1C(=O)c1ccc(C#N)cc1 [Example 6]	nM	0.8
Cn1cncc1C(=O)c1ccc(SC(F)(F)F)cc1 [Example 73]	nM	390
CC(C)n1cncc1C(=O)c1cccc(Cl)c1 [Example 12]	nM	1.3
CCSc1ccc(C(=O)c2cncn2C2CC2)cc1 [Example 70]	nM	22.8
CC(C)n1cncc1C(=O)c1ccc(N(C)C=O)cc1 [Example 93]	nM	11.7

Query (compound): C#Cc1ccc(C(=O)c2cncn2CC)cc1 [Example 48] ; field requested: EC50
4.3

Query (compound): O=C(c1ccc(Cl)cc1)c1cncn1C1CC1 [Example 19] ; field requested: EC50
6.1

Query (compound): CN(C=O)c1ccc(C(=O)c2cncn2C)cc1 [Example 87] ; field requested: EC50
186

Query (compound): N#Cc1ccc(C(=O)c2cncn2CC(F)(F)F)cc1 [Example 20] ; field requested: EC50
23.5

Query (compound): N#Cc1cc(C(=O)c2cncn2C2CC2)ccc1F [Example 66] ; field requested: EC50
447

Query (compound): CC(C)n1cncc1C(=O)c1ccc(SC(F)(F)F)cc1 [Example 75] ; field requested: EC50
89.9

* * *

target: human CYP11B2 (Homo sapiens); assay: G-402 cellular enzyme assay, human CYP11B2 (aldosterone release, HTRF); details: G-402 cells expressing human CYP11B2; 1 μM Deoxycorticosterone; 16 h
ATTRIBUTE MEASURED: EC50 (nM)
Write the answer as a number in nM, unit excluded.

Query (compound): O=C(c1ccc(Cl)c(F)c1)c1cncn1-c1ccc(Cl)cc1 [Example 92] ; field requested: EC50
3.2

Query (compound): O=C(c1ccc(Cl)cc1)c1cncn1-c1ccc(Cl)cc1 [Example 90] ; field requested: EC50
2.6

Query (compound): CCC(C)n1cncc1C(=O)c1ccc(Cl)cc1 (centres unmarked) [Example 17] ; field requested: EC50
0.3

Query (compound): CCSc1ccc(C(=O)c2cncn2C)cc1 [Example 51] ; field requested: EC50
102

Query (compound): COc1cc(C(=O)c2cncn2C)ccc1SC(F)(F)F [Example 79] ; field requested: EC50
14.8

* * *

biological target: human CYP11B1 (Homo sapiens); assay: G-402 cellular enzyme assay, human CYP11B1 (cortisol release, HTRF); settings: G-402 cells expressing human CYP11B1; 1 μM Deoxycortisol; 16 h
Sequence (P15538 25-503): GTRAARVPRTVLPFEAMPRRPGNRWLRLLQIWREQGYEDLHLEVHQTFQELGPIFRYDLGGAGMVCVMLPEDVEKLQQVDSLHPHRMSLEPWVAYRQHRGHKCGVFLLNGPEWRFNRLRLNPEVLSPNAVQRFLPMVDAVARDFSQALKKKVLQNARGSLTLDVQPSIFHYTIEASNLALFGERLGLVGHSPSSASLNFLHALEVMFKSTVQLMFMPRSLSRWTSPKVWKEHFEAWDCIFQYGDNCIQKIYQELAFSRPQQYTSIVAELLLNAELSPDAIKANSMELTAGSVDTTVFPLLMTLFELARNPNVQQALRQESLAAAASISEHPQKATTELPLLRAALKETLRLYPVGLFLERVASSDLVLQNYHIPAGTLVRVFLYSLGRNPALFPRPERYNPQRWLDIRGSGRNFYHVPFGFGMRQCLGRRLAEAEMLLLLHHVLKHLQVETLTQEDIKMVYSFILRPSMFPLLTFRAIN
Rule: measured EC50 below 200 nM gets MET; anything equal to or greater than 200 nM gets NOT MET.

Solved cases below.
COMPOUND	CLASS
CCSc1ccc(C(=O)c2cncn2C)cc1	NOT MET
CCn1cncc1C(=O)c1ccc(F)c(C#N)c1	NOT MET
CCSc1ccc(C(=O)c2cncn2C2CC2)cc1	NOT MET
CC(C)n1cncc1C(=O)c1ccc(C#N)cc1	MET
Cn1cncc1C(=O)c1ccc(Cl)c(F)c1	MET

Please state whether EC50 is below 200 nM for CCC(C)n1cncc1C(=O)c1ccc(F)c(C#N)c1 (centres unmarked)
MET

Please state whether EC50 is below 200 nM for "CCn1cncc1C(=O)c1ccc(SC(F)(F)F)cc1"
NOT MET

Please state whether EC50 is below 200 nM for "COc1ccc(C(=O)c2cncn2C)cc1"
NOT MET

Please state whether EC50 is below 200 nM for "N#Cc1ccc(-n2cncc2C(=O)c2ccc(Cl)c(F)c2)cc1"
MET

Please state whether EC50 is below 200 nM for "CC(C)n1cncc1C(=O)c1ccc(Cl)c(Cl)c1"
MET

Please state whether EC50 is below 200 nM for CCC(C)n1cncc1C(=O)c1ccc(Cl)cc1 (centres unmarked)
MET
